# Test system: Plasmodium berghei
# Assay Info: Screen against P. berghei liver stage (PbLuc), transformed with Luciferase, at 2uM
# Type: functional, HepG2
# Condition Notes: tested at 2 uM
Hit rate of the full screen: of about 68,000 compounds, about 2,700 (4%) showed an effect of 50% or more. Only a selection was taken, and strong results are over-represented in it overall.

| Molecule | Target Of Assay | Unit Name | INHIBITION |
| --- | --- | --- | --- |
| CC(=O)c1ccc(-c2cnn(CC(=O)Nc3cc(C)nn3C)c2)nc1 | Plasmodium berghei | % | 36.09 |
| Cc1cnn(CC2CCCCN2CC(=O)NCc2ccccn2)c1 (stereo not drawn) | Plasmodium berghei | % | 16.6 |
| CNC(=O)C1CCN(C(=O)CCn2cccn2)CC1 | Plasmodium berghei | % | -84.03 |
| Cc1noc(C)c1CN1CCn2cc(CNc3ccccn3)nc2C1 | Plasmodium berghei | % | 6.07 |
| Cn1c(CS(=O)(=O)Cc2ccc(Cl)cc2)cc(=O)n(C)c1=O | Plasmodium berghei | % | 26.34 |
| CCN1CCN(C)C(=O)C12CCN(Cc1csc(C)n1)CC2 | Plasmodium berghei | % | -66.6 |
| O=C(Cc1cccs1)NCC(=O)Nc1cn[nH]c1 | Plasmodium berghei | % | 28.49 |
| Cc1nnc(N2CCOC(Cn3cccn3)C2)c(C#N)c1C (stereo not drawn) | Plasmodium berghei | % | 8.7 |
| CCc1ccc(CN2CCC3(CC2)C(=O)N(C)CCN3CC)cc1 | Plasmodium berghei | % | 47.42 |
| CCN1CCN(C)C(=O)C12CCN(Cc1cccc(C)c1)CC2 | Plasmodium berghei | % | 60.6 |
| Cc1cc(C)n(CC2CCCN2C(=O)c2cccc3c2OCO3)n1 (stereo not drawn) | Plasmodium berghei | % | -72.55 |
| N#Cc1c(Cl)nsc1N1CCN(CC2CCCCC2)CC1 | Plasmodium berghei | % | 29.89 |
| CC(=O)c1ccc(-c2cnn(CC(=O)Nc3ccnn3C)c2)nc1 | Plasmodium berghei | % | 59.56 |
